FYI, the data here is from PubChem BioAssay (NCI).

Below, each entry is listed with its recorded TGI.
System: BT-549 breast
Experiment: NCI tumour cell line growth inhibition, 48 h
Field: numeric (µM). Do not append units.

These recorded examples may help you get a feel for the data.
CCC1OC2C(CC=C(C)C)=C3OC(C)(O)C(C)(CC)C(=O)C3=C3OC(=O)C=C1C32 (stereo not given); 49.5
O=C(c1ccccc1)c1c2n(c3c1cc(O)c1ccccc13)CCN2; 30.6

Pending compound:
# query: TGI | item O=C1c2c(F)c(F)c(F)c(F)c2SC2=Nc3cccc4cccc(c34)N12 | system: BT-549 breast 23.9

---

Tested on: PC-3 prostate
Assay: NCI tumour cell line growth inhibition, 48 h
Measured GI50, listed per entry for reference.

Worked set:
COc1ccc(/C=C/C(=O)c2ccccc2)cc1OC; 23.2 µM
Clc1ccc(Nc2ncnc3c2sc2ncccc23)c(Cl)c1; 2.72 µM

If you can, please state the reported GI50 value of Cn1cc(-c2ccc3nnc(C(F)(F)c4ccc5ncccc5c4)n3n2)cn1 . 85 µM
